Source listed as patent US11952364B2.

- Assay Method Text: Metabolic stability in liver microsomes
- Assay type: in vitro ADME
- Experimental Context: Beagle, pH 7.4; dog liver microsomes; read-out: T½
- Description: According to standard methods conventional in the art for in vitro metabolic stability studies, for example those protocols described in Kems, Edward H. and Di Li (2008). Drug-like Properties: Concepts. Structure Design and Methods: from ADME to Toxicity Optimization. […] The in vitro metabolic stability of the compound in 5 species (mouse, rat, dog, monkey, and human) was evaluated by liver microsomal stability test. […]
Measurement Name: half-life at 1 µM (min)

1) COc1ccc(C(=O)Nc2ccc(Oc3cc4cnn(C)c4cc3-c3cn[nH]c3)c(F)c2)c(=O)n1-c1ccc(F)cc1 [Example 12]
74.3
2) Cc1ccc(C(=O)Nc2ccc(Oc3cc4cnn(C)c4cc3-c3cn[nH]c3)c(F)c2)c(=O)n1-c1ccc(F)cc1 [Merestinib, reference compound]
89.9

====

- Assay Method Text: Metabolic stability in liver microsomes
- Assay type: in vitro ADME
- Experimental Context: Beagle, pH 7.4; dog liver microsomes
Measurement Name: CLint scaled at 1 µM (mL/min/kg)

1) COc1ccc(C(=O)Nc2ccc(Oc3cc4cnn(C)c4cc3-c3cn[nH]c3)c(F)c2)c(=O)n1-c1ccc(F)cc1
46.5
2) Cc1ccc(C(=O)Nc2ccc(Oc3cc4cnn(C)c4cc3-c3cn[nH]c3)c(F)c2)c(=O)n1-c1ccc(F)cc1 [Merestinib, reference compound]
38.4

====

- Assay Method Text: Metabolic stability in liver microsomes
- Format: in vitro ADME, cynomolgus monkey
- Experimental Context: pH 7.4; monkey liver microsomes; read-out: T½
- Method: According to standard methods conventional in the art for in vitro metabolic stability studies, for example those protocols described in Kems, Edward H. and Di Li (2008). Drug-like Properties: Concepts. Structure Design and Methods: from ADME to Toxicity Optimization. […] The in vitro metabolic stability of the compound in 5 species (mouse, rat, dog, monkey, and human) was evaluated by liver microsomal stability test. […]
Measurement Name: half-life at 1 µM (min)

P. COc1ccc(C(=O)Nc2ccc(Oc3cc4cnn(C)c4cc3-c3cn[nH]c3)c(F)c2)c(=O)n1-c1ccc(F)cc1 [Example 12]
Q. Cc1ccc(C(=O)Nc2ccc(Oc3cc4cnn(C)c4cc3-c3cn[nH]c3)c(F)c2)c(=O)n1-c1ccc(F)cc1 [Merestinib, reference compound]
Problem: Which shows the larger half-life at 1 µM value: P or Q ? Identify your pick by its label.
Solution: P
(P: 56 min, Q: 25 min)

====

IC50 data for P450 2C19 (Homo sapiens (Human), UniProt P33261) follow.

Problem: GET /values?readout=IC50&system=P450 2C19 (Homo sapiens (Human), UniProt P33261)&item= Cc1ccc(C(=O)Nc2ccc(Oc3cc4cnn(C)c4cc3-c3cn[nH]c3)c(F)c2)c(=O)n1-c1ccc(F)cc1 [Merestinib, reference compound]
Solution: > 10 µM

Problem: Request - read-out IC50 | tested on P450 2C19 (Homo sapiens (Human), UniProt P33261) | molecule COc1ccc(C(=O)Nc2ccc(Oc3cc4cnn(C)c4cc3-c3cn[nH]c3)c(F)c2)c(=O)n1-c1ccc(F)cc1 [Example 12]
Solution: > 10 µM

====

- Assay Method Text: Metabolic stability in liver microsomes
- Format: in vitro ADME, cynomolgus monkey
- Experimental Context: pH 7.4; monkey liver microsomes
Measurement Name: CLint scaled at 1 µM (L/h/kg)

a. COc1ccc(C(=O)Nc2ccc(Oc3cc4cnn(C)c4cc3-c3cn[nH]c3)c(F)c2)c(=O)n1-c1ccc(F)cc1 [Example 12]
b. Cc1ccc(C(=O)Nc2ccc(Oc3cc4cnn(C)c4cc3-c3cn[nH]c3)c(F)c2)c(=O)n1-c1ccc(F)cc1 [Merestinib, reference compound]
Problem: Between a and b , which one shows the smaller CLint scaled at 1 µM number? # reply format: chosen label
Solution: a

====

- Assay Method Text: Metabolic stability in liver microsomes
- Type: in vitro ADME
- Experimental Context: pH 7.4; human liver microsomes
Measurement Name: CLint scaled at 1 µM (mL/min/kg)

a. Cc1ccc(C(=O)Nc2ccc(Oc3cc4cnn(C)c4cc3-c3cn[nH]c3)c(F)c2)c(=O)n1-c1ccc(F)cc1 [Merestinib, reference compound]
b. COc1ccc(C(=O)Nc2ccc(Oc3cc4cnn(C)c4cc3-c3cn[nH]c3)c(F)c2)c(=O)n1-c1ccc(F)cc1
Problem: Between a and b , whose recorded CLint scaled at 1 µM is greater? Pick one and reply with its label.
Solution: a
(a: 22 mL/min/kg, b: 6.03 mL/min/kg)

====

- Measurement Target: P450 2C9 (Homo sapiens (Human))
- Sequence (P11712 whole entry): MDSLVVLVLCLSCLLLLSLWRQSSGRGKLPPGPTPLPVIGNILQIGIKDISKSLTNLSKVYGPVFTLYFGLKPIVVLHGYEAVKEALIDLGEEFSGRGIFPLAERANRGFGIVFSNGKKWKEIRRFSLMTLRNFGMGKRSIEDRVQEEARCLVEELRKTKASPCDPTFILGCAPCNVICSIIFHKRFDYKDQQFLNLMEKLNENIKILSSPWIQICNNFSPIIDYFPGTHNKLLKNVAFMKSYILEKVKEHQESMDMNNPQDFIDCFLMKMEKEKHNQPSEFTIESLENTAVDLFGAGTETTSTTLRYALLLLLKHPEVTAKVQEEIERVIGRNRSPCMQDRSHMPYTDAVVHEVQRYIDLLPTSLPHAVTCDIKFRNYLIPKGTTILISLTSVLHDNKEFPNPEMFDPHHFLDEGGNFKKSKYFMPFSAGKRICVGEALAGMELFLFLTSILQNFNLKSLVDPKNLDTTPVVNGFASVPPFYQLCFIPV
Measurement Name: IC50 (µM)
Reply numerically in µM, unit not repeated.

Problem: Recorded IC50 for Cc1ccc(C(=O)Nc2ccc(Oc3cc4cnn(C)c4cc3-c3cn[nH]c3)c(F)c2)c(=O)n1-c1ccc(F)cc1 [Merestinib, reference compound] with P450 2C9 (Homo sapiens (Human)), please?
Solution: 4.2

====

- System: Ba/F3 LMNA-NTRK1-G595R cells
- Assay Method Text: Proliferation of Ba/F3 LMNA-NTRK1-G595R cells (CellTiter-Glo)
- Format: cell-based
- Experimental Context: Mus musculus, BaF3; Table 5; 72 hours
Measurement Name: IC50 (µM)

1. CC(C)c1ccc(C(=O)Nc2ccc(Oc3cc4cnn(C)c4cc3-c3cn[nH]c3)c(F)c2)c(=O)n1-c1ccc(F)cc1
0.747

a. CCc1ccc(C(=O)Nc2ccc(Oc3cc4cnn(C)c4cc3-c3cn[nH]c3)c(F)c2)c(=O)n1-c1ccc(F)cc1
b. CCn1ncc2cc(Oc3ccc(NC(=O)c4ccc(C)n(-c5ccc(F)cc5)c4=O)cc3F)c(-c3cn[nH]c3)cc21
c. Cc1ccc(C(=O)Nc2ccc(Oc3cc4cnn(C(C)C)c4cc3-c3cn[nH]c3)c(F)c2)c(=O)n1-c1ccc(F)cc1
d. Cn1ncc2cc(Oc3ccc(NC(=O)c4ccc(C(F)(F)F)n(-c5ccc(F)cc5)c4=O)cc3F)c(-c3cn[nH]c3)cc21
Problem: Order the items by recorded IC50; the first position goes to the largest value. Give the order by naming the labels one after another as requested.
Solution: c, b, d, a

====

As a worked illustration, we turn to IC50 data collected for P450 1A2 (Homo sapiens (Human)).

Problem: Param readout= IC50; system= P450 1A2 (Homo sapiens (Human)); entry= `COc1ccc(C(=O)Nc2ccc(Oc3cc4cnn(C)c4cc3-c3cn[nH]c3)c(F)c2)c(=O)n1-c1ccc(F)cc1` ; returns value.
Solution: > 10 µM

Problem: Value wanted: IC50 (P450 1A2 (Homo sapiens (Human))) of entry Cc1ccc(C(=O)Nc2ccc(Oc3cc4cnn(C)c4cc3-c3cn[nH]c3)c(F)c2)c(=O)n1-c1ccc(F)cc1 [Merestinib, reference compound]
Solution: > 10 µM

====

- Assay Method Text: Solubility in simulated fluids and PBS
- Type: physicochemical
- Experimental Context: thermodynamic from solid; FaSSIF pH 6.5; 25° C.; read-out: Solubility FaSSIF (pH 6.5)
Measurement Name: solubility (µg/mL)

P. Cc1ccc(C(=O)Nc2ccc(Oc3cc4cnn(C)c4cc3-c3cn[nH]c3)c(F)c2)c(=O)n1-c1ccc(F)cc1 [Merestinib, reference compound]
Q. COc1ccc(C(=O)Nc2ccc(Oc3cc4cnn(C)c4cc3-c3cn[nH]c3)c(F)c2)c(=O)n1-c1ccc(F)cc1 [Example 12]
Problem: Sorting by solubility in descending order, would P or Q appear first? # answer = label of selected item
Solution: Q
(Q: 5.47 µg/mL, P: 3.07 µg/mL)

====

- System: Ba/F3 LMNA-NTRK1-G595R cells
- Assay Method Text: Proliferation of Ba/F3 LMNA-NTRK1-G595R cells (CellTiter-Glo)
- Type: cell-based
- Experimental Context: Mus musculus, BaF3; Table 5; 72 hours
pIC50: −log10 of the molar value.
Measurement Name: pIC50

1. Cn1ncc2cc(Oc3ccc(NC(=O)c4ccc(C5CC5)n(-c5ccc(F)cc5)c4=O)cc3F)c(-c3cn[nH]c3)cc21
6.12

P. Cc1ccc(C(=O)Nc2ccc(Oc3cc4cnn(C)c4cc3-c3cn[nH]c3)c(F)c2)c(=O)n1-c1ccc(F)cc1 [Merestinib, reference compound]
Q. O=C(Nc1cnn2ccc(N3CCC[C@@H]3c3cc(F)ccc3F)nc12)N1CC[C@H](O)C1 [LOXO-101, Larotrectinib, reference compound]
Problem: Hi there! Just curious which has the higher pIC50 between P and Q . Your answer should be the label of the entry you select.
Solution: P

====

- Assay Method Text: Metabolic stability in liver microsomes
- Assay type: in vitro ADME
- Experimental Context: pH 7.4; human liver microsomes; read-out: T½
Measurement Name: half-life at 1 µM (min)

1. COc1ccc(C(=O)Nc2ccc(Oc3cc4cnn(C)c4cc3-c3cn[nH]c3)c(F)c2)c(=O)n1-c1ccc(F)cc1 [Example 12]
2. Cc1ccc(C(=O)Nc2ccc(Oc3cc4cnn(C)c4cc3-c3cn[nH]c3)c(F)c2)c(=O)n1-c1ccc(F)cc1 [Merestinib, reference compound]
Problem: Lower half-life at 1 µM: 1 or 2 ? Lab note: record the label of whichever item you select.
Solution: 2
